All values here come from patent US11447500B2.

- Assayed system: RON kinase (Homo sapiens, UniProt Q04912)
- Construct: purchased Carna Bioscience
- Sequence (Q04912 25-1400): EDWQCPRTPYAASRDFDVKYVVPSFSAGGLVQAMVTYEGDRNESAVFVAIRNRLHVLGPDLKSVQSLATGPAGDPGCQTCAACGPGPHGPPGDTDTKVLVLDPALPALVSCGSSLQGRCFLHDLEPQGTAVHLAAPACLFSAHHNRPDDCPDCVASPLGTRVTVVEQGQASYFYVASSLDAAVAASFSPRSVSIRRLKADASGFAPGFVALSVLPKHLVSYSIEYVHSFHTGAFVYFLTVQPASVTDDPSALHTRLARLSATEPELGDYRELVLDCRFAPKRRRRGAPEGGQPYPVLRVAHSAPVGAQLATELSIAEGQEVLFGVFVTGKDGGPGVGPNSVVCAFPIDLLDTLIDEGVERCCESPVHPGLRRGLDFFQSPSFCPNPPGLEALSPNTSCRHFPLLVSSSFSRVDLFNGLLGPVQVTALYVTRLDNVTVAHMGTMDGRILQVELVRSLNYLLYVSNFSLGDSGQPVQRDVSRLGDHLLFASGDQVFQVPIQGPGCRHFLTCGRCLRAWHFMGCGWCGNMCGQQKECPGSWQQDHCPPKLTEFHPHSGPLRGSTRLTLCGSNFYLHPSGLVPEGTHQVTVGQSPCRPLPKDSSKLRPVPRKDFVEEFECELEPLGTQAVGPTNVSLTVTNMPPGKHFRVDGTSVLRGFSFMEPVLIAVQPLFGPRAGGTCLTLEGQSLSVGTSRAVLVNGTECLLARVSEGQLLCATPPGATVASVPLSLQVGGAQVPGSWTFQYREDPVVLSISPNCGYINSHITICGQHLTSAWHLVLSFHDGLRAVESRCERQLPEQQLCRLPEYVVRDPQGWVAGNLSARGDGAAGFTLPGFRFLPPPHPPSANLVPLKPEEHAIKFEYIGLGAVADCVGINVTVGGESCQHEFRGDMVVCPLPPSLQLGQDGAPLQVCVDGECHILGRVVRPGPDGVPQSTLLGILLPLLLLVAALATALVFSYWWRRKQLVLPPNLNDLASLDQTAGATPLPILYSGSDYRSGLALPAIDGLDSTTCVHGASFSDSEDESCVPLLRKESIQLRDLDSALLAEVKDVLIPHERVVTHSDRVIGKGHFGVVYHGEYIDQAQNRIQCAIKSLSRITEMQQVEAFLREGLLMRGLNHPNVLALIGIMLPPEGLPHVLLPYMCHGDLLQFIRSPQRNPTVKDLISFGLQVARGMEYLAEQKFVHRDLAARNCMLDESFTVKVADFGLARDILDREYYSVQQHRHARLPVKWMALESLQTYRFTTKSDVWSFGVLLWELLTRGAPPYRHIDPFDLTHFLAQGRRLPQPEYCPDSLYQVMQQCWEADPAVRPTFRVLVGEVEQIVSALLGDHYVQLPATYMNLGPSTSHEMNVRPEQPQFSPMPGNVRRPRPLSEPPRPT
- Assay explanation: RON kinase enzyme inhibitory activity, FRET (TR-FRET) technique
- Type: biochemical
- Experimental context: 60 min reaction
Where a name gives a salt, the structure may show the parent alone.
Recorded metric: IC50 (nM)
Give just the number in nM; leave the unit off.

Fill in: IC50 of COCCNCc1ccc(-c2cc3nccc(Oc4ccc(NC(=O)c5cccn(-c6ccc(F)cc6)c5=O)cc4F)c3s2)nc1.Cl [Example 4, Hydrochloride] is ___ 0.68

Record: COCCNCc1ccc(-c2cc3nccc(Oc4ccc(NC(=O)c5cc(C)cn(-c6ccc(F)cc6)c5=O)cc4F)c3s2)nc1 [Example 29, Hydrochloride] 1.21

Record: COCCNCc1ccc(-c2cc3nccc(Oc4ccc(NC(=O)c5ccc(C)n(-c6ccccc6)c5=O)cc4F)c3s2)nc1.Cl [Example 21, Hydrochloride] 0.56
